- ASSAY TARGET: T1, MICA.008.a3.T204-S297.C-terminal insert of N298.G299.S300.mIgG2a.Glyco17 (human; mouse, UniProt Q29983 204-297, engineered N-linked glycosylation site at inserted N298)
- T1 construct: not shown: murine IgG2a Fc
- T1 chain: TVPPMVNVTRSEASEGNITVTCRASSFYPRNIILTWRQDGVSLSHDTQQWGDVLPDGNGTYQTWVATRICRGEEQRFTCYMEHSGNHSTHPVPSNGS
- ASSAY EXPLANATION: ELISA, coated variant;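 further: ELISA with plates coated at 2 ug/ml with MICA*008 alpha 3 glycosylation variants as murine IgG2a Fc fusions, antibody binding detected by HRP anti-human IgG Fc and TMB absorbance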
ENDPOINT LABEL: binding result

Task item: Provide binding result value for the following binder: 3E11 (antibody, V domains shown, Mouse hybridoma antibody; constant regions differ by assay) VH: EIQLQQSGPELVKPGASVKVSCTASGYAFTKYNIYWVKQSHGKSLEWIGYIDPYTGGTISNQKFTGRATLTVDKSSSTAYLHLNSLTSEDSAVYYCARPGSYWYFGVWGAGTTVTVSS VL: DILMTQTPLSLPVSLGDQASISCRSSQSIVYTNGNTNLEWYLQKPGQSPKLLIYKVSNRFSGVPDRFSGSGSGTDFTLKISRVEAEDLGVYYCFQASYVPFTFGSGTKVEIK
Reply: binds

Task item: Provide binding result value for the following binder: 7A3.1.9 (antibody, V domains shown, Mouse hybridoma antibody; constant regions differ by assay) VH: QVQLKESGPGLVAPSQSLSITCTVSGFALTGSGVNWVRQPPGKGLEWLGMIWGDGNTDYNSALKSRLSISKDNSKSQIFLKMNSLQTDDTARYYCARGAHYGKRWYFDVWGAGTTVTVSS VL: DIQMTQTTSSLSASLGDRVTISCSASQGINNYLNWYQQKPDGTVKLLIYYTSSLPSGVPSRFSGSGSGTDYSLTISNLEPEDIATYYCQQYSKLPPTFGGGTKVEIK
Reply: binds

Task item: Provide binding result value for the following binder: 18G3 (antibody, V domains shown, Mouse variable domains; constant regions differ by assay) VH: VQLQESGPGLVKPSQSLSLTCNVTGYSITGDYAWNWIRQFPGNKLEWIGYIGYTGSTTYNPSLKSRVSITRDTSKNQFFLQLNSVTPEDTATYYCARWRNWAMDYWGLGTSVTVSS VL: DIQMTQTPSSLSASLGDRVTISCRANQDISHYLNWYQQKPDGAVKLLIYYTSRIHSGVPSRFSGSGSGTDYSLTIANLEQEDVATYFCQQGNTPPTTFGGGTKVEIK
Reply: binds
